system: Hepatocyte; assay: Hepatoprotective activity against H2O2-induced hepatotoxicity in Wistar rat hepatocytes assessed as reduction in glutamic pyruvate transaminase release after 1 hr relative to control; assay type: functional, cell-based
The source made the active and inactive calls. The calls are words filed in the database; no cut-off is given here.

structure smiles string: O=C1C[C@@H](c2ccc(O)c(O)c2)Oc2cc(O)cc(O)c21
Activity: inactive

structure smiles string: O=C1C[C@@H](c2ccc(O)cc2)Oc2cc(O)cc(O)c21
Activity: inactive

structure smiles string: O=c1c(O)c(-c2ccc(O)c(O)c2)oc2cc(O)cc(O)c12
Activity: Active

structure smiles string: COc1cc(/C=C/c2ccc(O)cc2)cc(O[C@@H]2O[C@H](CO[C@@H]3OC[C@](O)(CO)[C@H]3O)[C@@H](O)[C@H](O)[C@H]2O)c1
Activity: Active

structure smiles string: O=C1C[C@@H](c2ccc(O)c(O)c2)Oc2cc(O[C@@H]3O[C@H](CO)[C@@H](O)[C@H](O)[C@H]3O)cc(O)c21
Activity: inactive

* * *

system: Hepatocyte; experiment: Hepatoprotective activity against H2O2-induced hepatotoxicity in Wistar rat hepatocytes assessed as reduction in glutamic pyruvate transaminase release after 1 hr relative to control; assay type: functional, cell-based
Active and inactive are the calls of the source. No cut-off for these calls is given here.
Outcome codes: class 1 = active, class 0 = inactive

structure smiles string: O=c1ccoc2cc(O[C@@H]3O[C@H](CO)[C@@H](O)[C@H](O)[C@H]3O)cc(O)c12
group label: class 0
--
structure smiles string: COc1cc(/C=C/c2ccc(O)cc2)cc(O[C@@H]2O[C@H](CO)[C@@H](O)[C@H](O)[C@H]2O)c1
group label: class 1
--
structure smiles string: C[C@@H]1O[C@@H](Oc2c(-c3ccc(O)c(O)c3)oc3cc(O)cc(O)c3c2=O)[C@H](O)[C@H](O)[C@H]1O
group label: class 0
--
structure smiles string: O=C1C[C@@H](c2ccc(O)cc2)Oc2cc(O[C@@H]3O[C@H](CO)[C@@H](O)[C@H](O)[C@H]3O)cc(O)c21
group label: class 0
